- Test system: HEK-293T
- PROCEDURE TEXT: Incucyte cell viability with HEK293T; also: unitless GR value; below 1 slowed growth and below 0 cell loss
- Type: toxicity, cell-based
- EXPERIMENTAL CONDITIONS: human, 24 h, 10 µM, compound concentration 10 uM, replicate number 1
Assignment: determine reported Growth Rate for the given molecules.
Give bare numbers.

> print(dat)
                                   molecule  tested.on   value.kind  readout.value
1  C[C@@H]1CN(c2nccc(Nc3ccc4c(c3)n(CCC(C)(C)O)c(=O)n4C)n2)C[C@H](C)C1(F)F   HEK-293T  Growth Rate           0.03
2  CCCNC(=O)[C@H]1O[C@@H]1C(=O)N[C@H](C(=O)N1CCC[C@H]1C(=O)O)[C@@H](C)CC   HEK-293T  Growth Rate           0.63
3  O=C(COc1ccc(-c2oc3cc(O)c(C(=O)O)cc3c2C#Cc2cccc(Cl)c2)cc1)NC1CC1   HEK-293T  Growth Rate           0.87
4     Cc1ccc(C(=O)NCCCCCC(=O)Nc2ccccc2N)cc1   HEK-293T  Growth Rate              1
5  COc1cc(Nc2ncc(F)c(Nc3ccc4c(n3)NC(=O)C(C)(C)O4)n2)cc(OC)c1OC [R-406]   HEK-293T  Growth Rate            0.1

Each molecule below has a reported value. Please supply its Growth Rate.
1. CC1=NN(c2ccc(C(=O)O)cc2)C(=O)/C1=C/c1ccc(-c2cc(C)c(C)cc2[N+](=O)[O-])o1
2. CC(C)(C)c1ccc(CN(C(=O)CN(Cc2c(F)c(F)c(F)c(F)c2F)S(=O)(=O)c2ccc(F)cc2)c2ccc(C(=O)NO)cc2)cc1
3. CCC[C@H]1CNCc2c1[nH]c(=O)c(C#N)c2N1CCC2(CC1)CC2.Cl
4. O=S(=O)(O)c1ccc2cc(/N=N/c3cc(S(=O)(=O)O)c4cccnc4c3O)ccc2c1
5. COc1ccc(N(C(=O)Oc2c(C)cccc2C)c2ccnc(Nc3ccc(N4CCN(C)CC4)cc3)n2)c(OC)c1
6. CCCOc1ccc(CCc2nc3cc(-c4c(C)noc4C)ccc3n2CCN2CCOCC2)cc1

0.84
0.62
0.75
1
0.49
0.54

Each molecule below has a reported value. Please supply its Growth Rate.
1. O=C(c1ccc2c(ccn2-c2ccc(F)cc2)c1)N1CC(N2CCN(C(=O)c3nccs3)CC2)C1
2. COc1nc(N)nc(Nc2cc(S(N)(=O)=O)ccc2N[C@@H](c2cccc3c2OC(F)(F)O3)c2ncccc2Cl)n1
3. Cc1ncccc1-c1cnc(NCc2c(F)ccc3c2CCO3)n2cnnc12
4. COc1ccc(/C=C/C(=O)NO)c(-c2ccc(-c3ccccc3)cc2)c1
5. Nc1ccccc1NC(=O)CCCCCC(=O)Nc1ccccc1
6. C[C@H](Nc1cc(Cl)nc2c1cnn2[C@@H]1O[C@H](COP(=O)(O)CP(=O)(O)O)[C@@H](O)[C@H]1O)c1ccccc1F

[0.76, 0.97, 0.64, 0.41, 1, 0.88]

###

- Tested on: HEK-293T
- PROCEDURE TEXT: Incucyte cell viability with HEK293T; also: unitless GR value; below 1 slowed growth and below 0 cell loss
- Type: toxicity, cell-based
- EXPERIMENTAL CONDITIONS: human, 24 h, 10 µM, compound concentration 10 uM, replicate number 1
Peptide text beside a SMILES is read from it.
Friendly reminder: Growth Rate below 0.3 is True, at or above is False.

The examples below pair each entry with its known result.
MOLECULE	LABEL CLASS
Nc1ccccc1NC(=O)c1ccc(CNc2nccc(-c3cccnc3)n2)cc1	False
O=C1C(=O)N(Cc2ccccc2)c2ccc(S(=O)(=O)N3CCC[C@H]3COc3ccc(C(F)(F)F)cc3)cc21	True
N[C@@H](CC(=O)N1CCN(C(c2ccc(F)cc2)c2ccc(F)cc2)CC1)C(=O)N1Cc2ccccc2C1	False
CC(=O)N1CCc2c(c(N3CCCc4cc(-c5cnn(C)c5)c(C(F)F)cc43)nn2C2CCOCC2)C1	False

Record `FC(F)(F)Oc1ccc(Oc2ccnc(N3CCC(NC(=S)Nc4cccnc4)CC3)c2Cl)c(Cl)c1` : is its Growth Rate strictly below 0.3?
True

Record CC[C@H](C)[C@H](NC(C)=O)C(=O)N[C@@H](CCC(=O)O)C(=O)N[C@H](C(=O)N[C@H](C=O)CC(=O)O)[C@@H](C)O.O=C(O)C(F)(F)F (Ac-IETD-aldehyde) : is its Growth Rate strictly below 0.3?
False

###

- Test system: U2OS
- PROCEDURE TEXT: Incucyte cell viability with U2OS; also: unitless GR value; below 1 slowed growth and below 0 cell loss
- Type: toxicity, cell-based
- EXPERIMENTAL CONDITIONS: human, 24 h, 10 µM, compound concentration 10 uM, replicate number 2
Assignment: determine reported Growth Rate for the given compounds.
Numbers only.

Field: example entries. Status: answers known.
STRUCTURE	READOUT VALUE
O=C(c1ccc2c(ccn2-c2ccc(F)cc2)c1)N1CC(N2CCN(C(=O)c3nccs3)CC2)C1	0.91
CCN(CC)S(=O)(=O)c1cc(Nc2nccc(-c3ccnc(-c4ccc(NC(=O)NC)cc4)c3)n2)ccc1Cl	0.12

Next:
get_value(item= `Cc1ncsc1-c1ccc(CNC(=O)[C@@H]2C[C@@H](O)CN2C(=O)[C@@H](NC(=O)COCC(C)(COCCOCCOCCNC(=O)C[C@@H]2N=C(c3ccc(Cl)cc3)c3c(sc(C)c3C)-n3c(C)nnc32)COCCOCCOCCNC(=O)C[C@@H]2N=C(c3ccc(Cl)cc3)c3c(sc(C)c3C)-n3c(C)nnc32)C(C)(C)C)cc1` , readout=Growth Rate) returns 0.95

###

Assignment: determine reported Growth Rate for the given compounds.
- System: U2OS
- PROCEDURE TEXT: Incucyte cell viability with U2OS; also: unitless GR value; below 1 slowed growth and below 0 cell loss
- Assay type: toxicity, cell-based
- EXPERIMENTAL CONDITIONS: human, 24 h, 10 µM, compound concentration 10 uM, replicate number 2
Give bare numbers.

Field: example entries. Status: answers known.
> print(dat)
                                   compound   value.kind  readout.value
1  CCN(CCN(C)C)C(=O)CNCc1cc(C(N)=O)ccn1.Cl.O  Growth Rate            0.8
2  CCN1C(C)(C)CC(Oc2ccc(C(=O)Nc3ccc(NC(=O)Nc4cc(C(C)(C)C)on4)cc3)nc2)CC1(C)C  Growth Rate           0.66
3  CNC(=O)N1CCc2c(c(N3CCCc4cc(-c5cnn(C)c5)c(C(F)F)cc43)nn2C2CCOCC2)C1  Growth Rate              1
4       Cc1ccc(NC2=CC(=O)c3sc(C)nc3C2=O)cc1  Growth Rate          -0.45
5  COc1cc(O)c2c(c1)/C=C\C[C@H](O)[C@H](O)C(=O)/C=C\C[C@H](C)OC2=O  Growth Rate          -0.35

Each compound below has a reported value. Please supply its Growth Rate.
1. [2H]C([2H])([2H])C1(C([2H])([2H])[2H])Cn2nc(-c3ccc(F)cn3)c(-c3ccnc4[nH]ncc34)c2CO1
2. NC(=O)[C@H]1CCCCc2c1[nH]c1ccc(Cl)cc21
3. O=C(NO)C(c1ccc(-c2ncc(C(F)(F)F)cn2)cc1)c1ccccc1F (stereo not drawn)

0.8
1
0.81

###

- Test system: U2OS
- PROCEDURE TEXT: Incucyte cell viability with U2OS; also: unitless GR value; below 1 slowed growth and below 0 cell loss
- Format: toxicity, cell-based
- EXPERIMENTAL CONDITIONS: human, 24 h, 10 µM, compound concentration 10 uM, replicate number 1
Peptide text beside a SMILES is read from it. * marks the point of attachment. Boc = CC(C)(C)OC(=O)*
Assignment: determine reported Growth Rate for the given compounds.
One number for each entry.

Field: example entries. Status: answers known.
> print(dat)
                                   compound  readout.value
1  O=C(COc1ccc(-c2oc3cc(O)c(C(=O)O)cc3c2C#Cc2cccc(Cl)c2)cc1)NC1CC1           0.39
2  CNCCN(C)Cc1cn[nH]c1-c1ccc(OC2CC(OCCC3CCOCC3)C2)cc1 (stereo unspecified)           0.23
3  CCC[C@@H]1CNCc2c1[nH]c(=O)c(C#N)c2N1CCC2(CC1)CC2.Cl           0.72

Each compound below has a reported value. Please supply its Growth Rate.
1. CC(C)[C@H](NC(=O)[C@H](CCC(=O)O)NC(=O)[C@H](C)NC(=O)OC(C)(C)C)C(=O)N[C@H](C=O)CC(=O)O.O=C(O)C(F)(F)F (Boc-AEVD-aldehyde)
2. CC(C)(C)OC(=O)Nc1ccc(-c2cc(C(=O)NCCCCCCC(=O)NO)no2)cc1
3. CC(C)Nc1cc(-c2c[nH]c(C(=O)N[C@H](CO)c3cccc(Cl)c3)c2)c(Cl)cn1 [ULIXERTINIB]

1
0.28
0.68

Values compiled from ChEMBL document CHEMBL5724709.
